# Test system: peripheral blood mononuclear cells (PBMCs)
# test summary: IFN-γ ELISPOT assay (ex vivo) with subject PBMCs
# Assay type: cell-based, human
# setup conditions: Table 4, HTAPP-DACP related to group therapy
assay metric: Elispot [nspots/pM]

[ask] Tell me the measured Elispot [nspots/pM] of 50 (LLGRNSFEVCVCACPGRDRRQIKIWFQNRRMKWKK) [compound 50] , please.
[reply] 256,7 nspots/pM

[ask] # input substance: 51 (LLGRNSFEVHVCACPGRDRRQIKIWFQNRRMKWKK) [compound 51] ; wanted: its Elispot [nspots/pM]
[reply] 264,2 nspots/pM

[ask] I'd like to know its Elispot [nspots/pM]. The substance in question is 48 (KVKIPVAIKTSPKANKEIRQIKIWFQNRRMKWKK) [compound 48]
[reply] 39,2 nspots/pM

[ask] I am curious: what Elispot [nspots/pM] value has been reported for 44 (KAISTRDPLSKITEQEKDFLWRQIKIWFQNRRMKWKK) [compound 44] ?
[reply] 103,3 nspots/pM

[ask] Quick one: Elispot [nspots/pM] for 35 (EYFMKQMNDARHGGWTTKMDRQIKIWFQNRRMKWKK) [compound 35] ?
[reply] 20,0 nspots/pM

[ask] Sample 36 (EYKLVVVGAVGVGKSALTIQRQIKIWFQNRRMKWKK) [compound 36] — what was its Elispot [nspots/pM]?
[reply] 140 nspots/pM

[ask] I have this substance here, 49 (LLDILDTAGHEEYSAMRDQRQIKIWFQNRRMKWKK) [compound 49] , and I need its recorded Elispot [nspots/pM].
[reply] 161,7 nspots/pM

[ask] What value of measured Elispot [nspots/pM] is listed for 47 (KLVVVGADGVGKSALTIQLIQNHRQIKIWFQNRRMKWKK) [compound 47] ?
[reply] 120,0 nspots/pM

[ask] # get_value(readout='Elispot [nspots/pM]', item= 52 (LLGRNSFEVLVCACPGRDRRQIKIWFQNRRMKWKK) [compound 52] )
[reply] 275,0 nspots/pM

[ask] For the substance shown here, 37 (GACRHGDRCSRLHNKPTFSRQIKIWFQNRRMKWKK) [compound 37] , give the reported Elispot [nspots/pM].
[reply] 47,5 nspots/pM
